Target: T1, human CD20 antigen (human, UniProt P11836 1-297)
T1 construct: whole, on cells; also called CD20 on Raji cells; CD20/CHO cells
T1 sequence (looked up): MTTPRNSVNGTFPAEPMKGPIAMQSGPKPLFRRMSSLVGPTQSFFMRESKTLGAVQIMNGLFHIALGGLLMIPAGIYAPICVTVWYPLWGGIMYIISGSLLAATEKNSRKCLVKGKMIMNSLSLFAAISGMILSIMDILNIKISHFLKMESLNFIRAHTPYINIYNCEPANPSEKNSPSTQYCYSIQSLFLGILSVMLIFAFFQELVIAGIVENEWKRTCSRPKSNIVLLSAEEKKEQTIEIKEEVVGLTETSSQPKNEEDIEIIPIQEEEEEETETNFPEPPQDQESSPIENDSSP
Assay: Scatchard analysis on Raji cells (Example 3), average over the clones of the construct
Recorded Kd values for a group of binders are listed next.

Binder	Kd (nM)
humanized 1K1791 antibody as (AbbL x SdrH) (antibody, V domains shown, Kappa, gamma 1 construct; also called hz1791 as; As001) VH: QIQLVQSGSELKKPGASVKVSCKASGYTFTNFGVNWVRQAPGKGLKWMGWINTYTGEPSYAQGFTGRFAFSLDASVSTAYLQISSLKAEDTATYFCTRRTNYYGTSYYYAMDYWGQGTTVTVSS VL: STVMTQSPDSLAVSLGERATINCKSSQSVSNDVAWYQQKPGQSPKVLIYFASNRYSGVPDRFSGSGYGTDFTLTISSLQAEDVAVYFCQQDYSSPLTFGAGTKLEIK	11.7
humanized 1K1791 antibody ff (FraL x FraH) (antibody, V domains shown, Kappa, gamma 1 construct; also called hz1791 ff; Ff019) VH: QIQLVQSGSELKKPGASVKVSCKASGYTFTNFGVNWVKQAPGKGLKWMGWINTYTGEPSYADDFKGRFAFSLDASASTAYLQISSLKAEDMATYFCTRRTNYYGTSYYYAMDYWGQGTTVTVSS VL: STVMTQSPSFLSASVGDRVTITCKASQSVSNDVAWYQQKPGQSPKVLIYFASNRYTGVPDRFSGSGYGTDFTLTISSLQAEDVAVYFCQQDYSSPLTFGAGTKLEIK	8.15
humanized 1K1791 antibody vv (VenL x VenH) (antibody, V domains shown, Kappa, gamma 1 construct; also called hz1791 vv; Vv018) VH: QIQLVQSGPELKKPGASVKISCKASGYTFTNFGVNWVKQAPGKGLKWMGWINTYTGEPSYADDFKGRFAFSLDASVSTAYLQISSLKAEDTSTYFCTRRTNYYGTSYYYAMDYWGQGTTVTVSS VL: STVMTQSPDSLAVSLGERVTINCKASQSVSNDVAWYQQKPGQSPKVLIYFASNRYTGVPDRFSGSGYGTDFTFTISSVQAEDVAVYFCQQDYSSPLTFGAGTKLELK	7.07
humanized 1K1791 antibody sa (SdrL x AbbH) (antibody, V domains shown, Kappa, gamma 1 construct; also called hz1791 sa; Sa023) VH: QIQLVQSGSELKKPGASVKVSCKASGYTFTNFGVNWVRQAPGKGLEWMGWINTYTGEPSYAQGFTGRFVFSLDASVSTAYLQISSLKAEDTATYFCTRRTNYYGTSYYYAMDYWGQGTTVTVSS VL: STVMTQSPDSLAVSLGERATINCKSSQSNSNDVAWYQQKPGQSPKVLIYFASNRYSGVPDRFSGSGYGTDFTLTISSLQAEDVAVYFCQQDYSSPLTFGAGTKLEIK	14.7
humanized 1K1791 antibody af (AbbL x FraH) (antibody, V domains shown, Kappa, gamma 1 construct; also called hz1791 af; Af021) VH: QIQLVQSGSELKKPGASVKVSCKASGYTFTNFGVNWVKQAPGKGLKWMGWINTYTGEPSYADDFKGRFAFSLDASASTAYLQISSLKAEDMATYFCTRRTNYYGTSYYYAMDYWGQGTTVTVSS VL: STVMTQSPDSLAVSLGERATINCKSSQSVSNDVAWYQQKPGQSPKVLIYFASNRYSGVPDRFSGSGYGTDFTLTISSLQAEDVAVYFCQQDYSSPLTFGAGTKLEIK	7.76
humanized 1K1791 antibody fs (FraL x SdrH) (antibody, V domains shown, Kappa, gamma 1 construct; also called hz1791 fs; Fs007) VH: QIQLVQSGSELKKPGASVKVSCKASGYTFTNFGVNWVRQAPGKGLKWMGWINTYTGEPSYAQGFTGRFAFSLDASVSTAYLQISSLKAEDTATYFCTRRTNYYGTSYYYAMDYWGQGTTVTVSS VL: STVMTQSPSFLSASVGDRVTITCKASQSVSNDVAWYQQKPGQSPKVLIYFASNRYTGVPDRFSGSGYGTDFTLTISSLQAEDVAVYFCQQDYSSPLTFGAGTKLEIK	8.71
humanized 1K1791 antibody av (AbbL x VenH) (antibody, V domains shown, Kappa, gamma 1 construct; also called hz1791 av; Av004) VH: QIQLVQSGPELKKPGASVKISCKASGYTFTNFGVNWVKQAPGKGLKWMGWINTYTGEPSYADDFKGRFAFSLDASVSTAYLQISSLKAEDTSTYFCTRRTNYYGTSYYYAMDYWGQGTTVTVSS VL: STVMTQSPDSLAVSLGERATINCKSSQSVSNDVAWYQQKPGQSPKVLIYFASNRYSGVPDRFSGSGYGTDFTLTISSLQAEDVAVYFCQQDYSSPLTFGAGTKLEIK	9.94
humanized 1K1791 antibody vf (VenL x FraH) (antibody, V domains shown, Kappa, gamma 1 construct; also called hz1791 vf; Vf029) VH: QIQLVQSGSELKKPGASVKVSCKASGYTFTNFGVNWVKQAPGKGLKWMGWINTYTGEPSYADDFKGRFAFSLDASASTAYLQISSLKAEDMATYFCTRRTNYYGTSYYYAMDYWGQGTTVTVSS VL: STVMTQSPDSLAVSLGERVTINCKASQSVSNDVAWYQQKPGQSPKVLIYFASNRYTGVPDRFSGSGYGTDFTFTISSVQAEDVAVYFCQQDYSSPLTFGAGTKLELK	7.78
humanized 1K1791 antibody ss (SdrL x SdrH) (antibody, V domains shown, Kappa, gamma 1 construct; also called hz1791 ss; Ss020) VH: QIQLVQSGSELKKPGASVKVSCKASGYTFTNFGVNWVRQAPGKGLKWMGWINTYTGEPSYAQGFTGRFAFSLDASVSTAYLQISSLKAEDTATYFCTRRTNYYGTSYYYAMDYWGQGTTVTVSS VL: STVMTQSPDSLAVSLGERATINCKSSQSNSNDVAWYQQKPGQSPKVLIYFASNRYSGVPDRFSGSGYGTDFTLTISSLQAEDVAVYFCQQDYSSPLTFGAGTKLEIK	23.1
humanized 1K1791 antibody vs (VenL x SdrH) (antibody, V domains shown, Kappa, gamma 1 construct; also called hz1791 vs; Vs006) VH: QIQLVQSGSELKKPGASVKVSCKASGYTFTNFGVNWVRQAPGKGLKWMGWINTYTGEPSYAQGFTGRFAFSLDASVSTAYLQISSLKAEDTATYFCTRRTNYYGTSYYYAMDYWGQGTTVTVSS VL: STVMTQSPDSLAVSLGERVTINCKASQSVSNDVAWYQQKPGQSPKVLIYFASNRYTGVPDRFSGSGYGTDFTFTISSVQAEDVAVYFCQQDYSSPLTFGAGTKLELK	10.3

The reported measurements were obtained from patent US20090203886A1.
